# targetOrTestSystem: Integrin alpha-4/beta-1 (Homo sapiens, UniProt P05556+P13612)
# Sequence (P05556 whole entry): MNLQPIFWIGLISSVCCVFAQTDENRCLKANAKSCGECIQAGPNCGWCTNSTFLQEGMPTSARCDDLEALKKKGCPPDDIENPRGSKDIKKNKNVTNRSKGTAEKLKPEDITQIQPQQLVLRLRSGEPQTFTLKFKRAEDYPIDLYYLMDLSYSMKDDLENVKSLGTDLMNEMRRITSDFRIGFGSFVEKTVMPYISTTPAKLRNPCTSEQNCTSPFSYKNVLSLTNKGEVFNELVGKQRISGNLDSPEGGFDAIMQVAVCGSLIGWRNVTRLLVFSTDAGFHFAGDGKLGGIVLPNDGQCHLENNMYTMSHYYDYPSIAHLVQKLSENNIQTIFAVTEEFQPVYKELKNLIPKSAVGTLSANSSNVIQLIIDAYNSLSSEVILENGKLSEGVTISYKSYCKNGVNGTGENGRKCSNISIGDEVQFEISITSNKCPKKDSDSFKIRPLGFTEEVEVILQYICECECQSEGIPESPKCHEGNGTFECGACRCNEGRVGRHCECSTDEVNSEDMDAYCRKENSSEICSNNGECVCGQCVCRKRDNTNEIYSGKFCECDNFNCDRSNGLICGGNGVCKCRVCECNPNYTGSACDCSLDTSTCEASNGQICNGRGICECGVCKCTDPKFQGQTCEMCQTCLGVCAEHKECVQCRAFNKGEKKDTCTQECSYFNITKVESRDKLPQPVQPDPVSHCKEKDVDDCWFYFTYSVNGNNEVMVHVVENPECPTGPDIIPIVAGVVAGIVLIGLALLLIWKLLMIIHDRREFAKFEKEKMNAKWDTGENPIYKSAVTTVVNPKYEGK
# Sequence (P13612 whole entry): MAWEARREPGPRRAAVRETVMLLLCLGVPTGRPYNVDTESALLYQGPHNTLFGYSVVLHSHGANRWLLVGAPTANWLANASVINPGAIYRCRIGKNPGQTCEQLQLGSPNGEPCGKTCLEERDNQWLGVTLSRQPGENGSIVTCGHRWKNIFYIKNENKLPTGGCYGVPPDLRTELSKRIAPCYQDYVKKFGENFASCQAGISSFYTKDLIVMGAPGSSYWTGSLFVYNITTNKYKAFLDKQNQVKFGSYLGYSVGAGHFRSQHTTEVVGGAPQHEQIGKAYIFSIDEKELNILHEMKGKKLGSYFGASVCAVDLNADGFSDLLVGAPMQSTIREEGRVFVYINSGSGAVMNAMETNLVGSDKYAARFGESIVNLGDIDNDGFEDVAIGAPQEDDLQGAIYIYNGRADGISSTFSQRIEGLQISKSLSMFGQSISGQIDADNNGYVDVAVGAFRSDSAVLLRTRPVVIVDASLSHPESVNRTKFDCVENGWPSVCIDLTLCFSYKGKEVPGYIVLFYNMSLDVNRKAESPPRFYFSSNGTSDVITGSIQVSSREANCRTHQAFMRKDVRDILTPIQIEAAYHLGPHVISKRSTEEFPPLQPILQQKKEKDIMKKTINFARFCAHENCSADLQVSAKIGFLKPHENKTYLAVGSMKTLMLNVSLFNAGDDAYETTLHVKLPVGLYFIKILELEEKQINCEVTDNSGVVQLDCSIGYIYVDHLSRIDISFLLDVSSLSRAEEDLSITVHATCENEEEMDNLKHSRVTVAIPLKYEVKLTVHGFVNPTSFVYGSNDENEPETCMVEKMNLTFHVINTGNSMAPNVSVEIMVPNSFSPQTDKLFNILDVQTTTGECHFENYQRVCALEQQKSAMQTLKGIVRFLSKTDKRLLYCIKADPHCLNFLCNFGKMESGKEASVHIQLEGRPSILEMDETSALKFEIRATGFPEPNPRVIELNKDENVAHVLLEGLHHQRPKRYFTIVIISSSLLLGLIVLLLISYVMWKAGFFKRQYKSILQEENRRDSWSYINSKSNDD
# experimentalProtocol: Inhibitory concentration affording 50% inhibition of alpha4-beta1 integrin binding to VCAM-1, using ELISA assay.
Peptide text beside a SMILES is read from it.
Give IC50 for every item shown.
Numbers only, in µM.

# annotated cases, reported IC50 shown
molecule	targetOrTestSystem	observedResult
CC(C)C[C@@H]1NC(=O)[C@H]([C@@H](C)O)NC(=O)[C@H](CC(=O)O)NC(=O)[C@H](CO)NC(=O)[C@H](CCCNC(=N)N)NC(=O)[C@@H](NC(=O)[C@@H](N)CC(=O)O)CSSC[C@@H](C(N)=O)NC1=O (HELM PEPTIDE1{D.C.R.S.D.T.L.C.[am]}$PEPTIDE1,PEPTIDE1,2:R3-8:R3$$$V2.0)	Integrin alpha-4/beta-1 (Homo sapiens, UniProt P05556+P13612)	8.6
CSCC[C@H](N)C(=O)N[C@@H](CC(=O)O)C(=O)N[C@H]1CSSC[C@@H](C(N)=O)NC(=O)[C@H](CC(C)C)NC(=O)[C@H]([C@@H](C)O)NC(=O)[C@H](CC(=O)O)NC(=O)[C@H](CO)NC(=O)[C@H](CCCN=C(N)N)NC1=O (HELM PEPTIDE1{M.D.C.R.S.D.T.L.C.[am]}$PEPTIDE1,PEPTIDE1,3:R3-9:R3$$$V2.0)	Integrin alpha-4/beta-1 (Homo sapiens, UniProt P05556+P13612)	11.8

Look up and report measured IC50 for this entry: CC(C)C[C@@H]1NC(=O)[C@H]([C@@H](C)O)NC(=O)[C@H](CC(=O)O)NC(=O)[C@H](CO)NC(=O)[C@H](C)NC(=O)[C@@H](N)CSSC[C@@H](C(N)=O)NC1=O (HELM PEPTIDE1{C.A.S.D.T.L.C.[am]}$PEPTIDE1,PEPTIDE1,1:R3-7:R3$$$V2.0)
2.8

---

# experimentalProtocol: Selectivity is the ratio of inhibitory concentrations at alpha4-beta1 integrin to alpha4-beta7 integrin
reportedProperty: Ratio
Give bare numbers.

CC(C)C[C@H]1NC(=O)[C@H]([C@@H](C)O)NC(=O)[C@@H](CC(=O)O)NC(=O)[C@H](CO)NC(=O)[C@@H](Cc2ccccc2)NC(=O)[C@H](N)CSSC[C@H](C(N)=O)NC1=O 0.09
CC(C)C[C@H]1NC(=O)[C@H]([C@@H](C)O)NC(=O)[C@@H](CC(=O)O)NC(=O)[C@H](CO)NC(=O)[C@@H](CCCN=C(N)N)NC(=O)[C@H](N)CSSC[C@H](C(=O)O)NC1=O 3.1
CSCC[C@@H]1NC(=O)[C@@H](CCCN=C(N)N)NC(=O)[C@H](N)CSSC[C@H](C(N)=O)NC(=O)[C@@H](CC(C)C)NC(=O)[C@H]([C@@H](C)O)NC(=O)[C@@H](CC(=O)O)NC1=O 1.5

Report Ratio for each item below.
1. CC(C)C[C@H]1NC(=O)[C@H]([C@@H](C)O)NC(=O)[C@@H](CC(=O)O)NC(=O)[C@H](CO)NC(=O)[C@@H](Cc2ccc(O)cc2)NC(=O)[C@H](N)CSSC[C@H](C(N)=O)NC1=O
2. CC[C@H](C)[C@H]1NC(=O)[C@H]([C@@H](C)O)NC(=O)[C@@H](CC(=O)O)NC(=O)[C@H](CO)NC(=O)[C@@H](CCCN=C(N)N)NC(=O)[C@H](N)CSSC[C@H](C(N)=O)NC1=O
3. CC(C)C[C@H]1NC(=O)[C@H]([C@@H](C)O)NC(=O)[C@@H](CC(=O)O)NC(=O)[C@H]([C@@H](C)O)NC(=O)[C@@H](CCCN=C(N)N)NC(=O)[C@H](N)CSSC[C@H](C(N)=O)NC1=O
4. CC(C)[C@H]1NC(=O)[C@H]([C@@H](C)O)NC(=O)[C@@H](CC(=O)O)NC(=O)[C@H](CO)NC(=O)[C@@H](CCCN=C(N)N)NC(=O)[C@H](N)CSSC[C@H](C(N)=O)NC1=O
5. CC(C)C[C@H]1NC(=O)[C@H](C(C)C)NC(=O)[C@@H](CC(=O)O)NC(=O)[C@H](CO)NC(=O)[C@@H](CCCN=C(N)N)NC(=O)[C@H](N)CSSC[C@H](C(N)=O)NC1=O
6. CC(C)C[C@H]1NC(=O)[C@H]([C@@H](C)O)NC(=O)[C@@H](CC(N)=O)NC(=O)[C@H](CO)NC(=O)[C@@H](CCCN=C(N)N)NC(=O)[C@H](N)CSSC[C@H](C(N)=O)NC1=O
7. CC[C@H](C)[C@@H]1NC(=O)[C@@H](CCCN=C(N)N)NC(=O)[C@H](N)CSSC[C@H](C(N)=O)NC(=O)[C@@H](CC(C)C)NC(=O)[C@H]([C@@H](C)O)NC(=O)[C@@H](CC(=O)O)NC1=O
8. CC(C)C[C@H]1NC(=O)[C@H](CO)NC(=O)[C@@H](CC(=O)O)NC(=O)[C@H](CO)NC(=O)[C@@H](CCCN=C(N)N)NC(=O)[C@H](N)CSSC[C@H](C(N)=O)NC1=O

0.07
14
3.5
13.1
15.5
0.5
0.06
48

---

Give IC50 for every item shown.
# targetOrTestSystem: Integrin alpha-4/beta-1 (Homo sapiens, UniProt P05556+P13612)
# experimentalProtocol: Inhibitory concentration affording 50% inhibition of alpha4-beta1 integrin binding to VCAM-1, using ELISA assay.
Peptide text beside a SMILES is read from it.
The answer consists of two parts: a number and, after it, its unit.

# annotated cases, reported IC50 shown
molecule	IC50
CC(C)C[C@@H]1NC(=O)[C@H]([C@@H](C)O)NC(=O)[C@H](CCC(=O)O)NC(=O)[C@H](CO)NC(=O)[C@H](CCCN=C(N)N)NC(=O)[C@@H](N)CSSC[C@@H](C(N)=O)NC1=O	3 µM
CC(C)C[C@@H]1NC(=O)[C@H](CO)NC(=O)[C@H](CC(=O)O)NC(=O)[C@H](CO)NC(=O)[C@H](CCCNC(=N)N)NC(=O)[C@@H](N)CSSC[C@@H](C(N)=O)NC1=O	14 µM
CSCC[C@H](N)C(=O)N[C@@H](CC(=O)O)C(=O)N[C@H]1CSSC[C@@H](C(=O)NCC(=O)N[C@@H](CCC(=O)O)C(N)=O)NC(=O)[C@H](CC(C)C)NC(=O)[C@H]([C@@H](C)O)NC(=O)[C@H](CC(=O)O)NC(=O)[C@H](CO)NC(=O)[C@H](CCCNC(=N)N)NC1=O (HELM PEPTIDE1{M.D.C.R.S.D.T.L.C.G.E.[am]}$PEPTIDE1,PEPTIDE1,3:R3-9:R3$$$V2.0)	4.2 µM

Please examine the following record next.
Look up and report measured IC50 for this entry: `C[C@@H](O)[C@@H]1NC(=O)[C@H](CC(=O)O)NC(=O)[C@H](CO)NC(=O)[C@H](CCCNC(=N)N)NC(=O)[C@@H](N)CSSC[C@@H](C(N)=O)NC(=O)[C@@H]2CCCN2C1=O`
37 µM

---

# targetOrTestSystem: Integrin alpha-4/beta-7 (Homo sapiens, UniProt P13612+P26010)
# Sequence (P13612 whole entry): as above
# Sequence (P26010 whole entry): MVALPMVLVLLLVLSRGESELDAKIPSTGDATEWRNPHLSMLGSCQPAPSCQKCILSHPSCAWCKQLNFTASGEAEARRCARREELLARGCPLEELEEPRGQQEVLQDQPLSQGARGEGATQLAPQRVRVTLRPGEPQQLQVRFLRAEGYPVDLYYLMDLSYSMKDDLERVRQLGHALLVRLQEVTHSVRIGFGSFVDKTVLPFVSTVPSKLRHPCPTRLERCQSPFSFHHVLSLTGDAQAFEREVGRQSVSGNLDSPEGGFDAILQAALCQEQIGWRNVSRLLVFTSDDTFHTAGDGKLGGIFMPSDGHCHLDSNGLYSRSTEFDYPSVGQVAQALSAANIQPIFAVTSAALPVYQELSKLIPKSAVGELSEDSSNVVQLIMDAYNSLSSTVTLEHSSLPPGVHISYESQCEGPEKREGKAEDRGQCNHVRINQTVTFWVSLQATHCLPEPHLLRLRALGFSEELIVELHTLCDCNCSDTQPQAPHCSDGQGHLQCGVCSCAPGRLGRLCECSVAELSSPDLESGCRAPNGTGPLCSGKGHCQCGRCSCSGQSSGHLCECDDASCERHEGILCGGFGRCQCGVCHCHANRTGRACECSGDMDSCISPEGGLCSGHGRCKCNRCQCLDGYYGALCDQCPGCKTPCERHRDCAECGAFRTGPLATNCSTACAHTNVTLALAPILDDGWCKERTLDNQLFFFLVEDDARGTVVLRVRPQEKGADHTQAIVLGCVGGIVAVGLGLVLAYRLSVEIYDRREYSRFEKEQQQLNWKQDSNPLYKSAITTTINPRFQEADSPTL
# experimentalProtocol: Ability to block the alpha4-beta7 integrin-MAdCAM-1 binding interaction using a protein ELISA format
Peptide text beside a SMILES is read from it.
reportedProperty: pIC50
Answers are plain numbers, as −log10 of the molar value.

compound	observedResult
CSCC[C@H](N)C(=O)N[C@@H](CC(=O)O)C(=O)N[C@H]1CSSC[C@@H](C(=O)NCC(=O)N[C@@H](CCC(=O)O)C(N)=O)NC(=O)[C@H](CC(C)C)NC(=O)[C@H]([C@@H](C)O)NC(=O)[C@H](CC(=O)O)NC(=O)[C@H](CO)NC(=O)[C@H](CCCNC(=N)N)NC1=O (HELM PEPTIDE1{M.D.C.R.S.D.T.L.C.G.E.[am]}$PEPTIDE1,PEPTIDE1,3:R3-9:R3$$$V2.0)	6.72

Report pIC50 for each item below.
1. CC(C)C[C@H]1NC(=O)[C@@H]([C@@H](C)O)NC(=O)[C@@H](CC(=O)O)NC(=O)[C@H](CO)NC(=O)[C@@H](CCCN=C(N)N)NC(=O)[C@H](N)CSSC[C@H](C(N)=O)NC1=O
2. CC[C@H](C)[C@@H]1NC(=O)[C@H](CCCN=C(N)N)NC(=O)[C@@H](N)CSSC[C@@H](C(N)=O)NC(=O)[C@H](CC(C)C)NC(=O)[C@H]([C@@H](C)O)NC(=O)[C@H](CC(=O)O)NC1=O

[5.10, 4.70]

---

# experimentalProtocol: Selectivity is the ratio of inhibitory concentrations at alpha4-beta1 integrin to alpha4-beta7 integrin
Give Ratio for every item shown.
One number for each entry.

# annotated cases, reported Ratio shown
C[C@@H](O)[C@@H]1NC(=O)[C@@H](CC(=O)O)NC(=O)[C@H](CO)NC(=O)[C@@H](CCCN=C(N)N)NC(=O)[C@H](N)CSSC[C@H](C(N)=O)NC(=O)[C@H]2CCCN2C1=O 0.9
CC(C)C[C@H]1NC(=O)[C@H]([C@@H](C)O)NC(=O)[C@@H](CC(=O)O)NC(=O)[C@H](CO)NC(=O)[C@@H](Cc2c[nH]c3ccccc23)NC(=O)[C@H](N)CSSC[C@H](C(N)=O)NC1=O 0.37
CC(C)C[C@@H]1NC(=O)[C@@H](CCCN=C(N)N)NC(=O)[C@H](N)CSSC[C@H](C(N)=O)NC(=O)[C@@H](CC(C)C)NC(=O)[C@H]([C@@H](C)O)NC(=O)[C@@H](CC(=O)O)NC1=O 0.42
CC(C)C[C@H]1NC(=O)[C@@H]([C@@H](C)O)NC(=O)[C@@H](CC(=O)O)NC(=O)[C@H](CO)NC(=O)[C@@H](CCCN=C(N)N)NC(=O)[C@H](N)CSSC[C@H](C(N)=O)NC1=O 2.5
CC(C)C[C@H]1NC(=O)[C@H]([C@@H](C)O)NC(=O)[C@@H](CC(=O)O)NC(=O)[C@H](CO)NC(=O)[C@@H](CCCN=C(N)N)NC(=O)[C@H](N)CSSC[C@H](C(N)=O)NC1=O 35
CC(C)C[C@H]1NC(=O)[C@H]([C@@H](C)O)NC(=O)[C@@H](CCC(=O)O)NC(=O)[C@H](CO)NC(=O)[C@@H](CCCN=C(N)N)NC(=O)[C@H](N)CSSC[C@H](C(N)=O)NC1=O 0.1

Report Ratio for each item below.
1. CC(C)C[C@H]1NC(=O)[C@H]([C@@H](C)O)NC(=O)[C@@H](CC(N)=O)NC(=O)[C@H](CO)NC(=O)[C@@H](CCCN=C(N)N)NC(=O)[C@H](N)CSSC[C@H](C(=O)O)NC1=O
2. CC(C)C[C@H]1NC(=O)[C@H]([C@@H](C)O)NC(=O)[C@@H](CC(=O)O)NC(=O)[C@H](CO)NC(=O)[C@@H](Cc2c[nH]cn2)NC(=O)[C@H](N)CSSC[C@H](C(N)=O)NC1=O
3. CC(C)C[C@H]1NC(=O)[C@H]([C@@H](C)O)NC(=O)[C@@H](CC(=O)O)NC(=O)[C@H](CO)NC(=O)[C@@H](CCCCN)NC(=O)[C@H](N)CSSC[C@H](C(N)=O)NC1=O

[0.06, 2.8, 6]
